# experimentSummary: blockers of mitochondrial fusion, WT vs mutant – cell-based, chemical genetic, wild-type and mutant, confirmation (AID 1361)
# assayContext: Cell-based mitochondrial fusion phenotype, imaging, WT cells
Calls of active or inactive are those of the source. No rule for the calls is given here.
attributeMeasured: IC50

>>> result("CN(C)c1ncc(S(=O)(=O)c2ccc(Cl)cc2)c(-c2ccc(Cl)cc2Cl)n1")
"9.56 µM"
>>> result("Cc1nc2c(ccc3nc(NC(=O)Cc4ccccc4)sc32)s1")
"12.4 µM"
>>> result("Cc1ccccc1CN(C)CC(=O)Nc1ccccc1-c1ccccc1")
"16.3 µM"
>>> result("COc1cccc(N2C(=O)C(c3ccccc3)=C(c3nc4ccccc4s3)C2NC(C)=O)c1 (stereo not given)")
"> 25 µM (inactive)"
>>> result("COc1ccccc1CNc1nc2nc(C)c(C)c(=O)n2[nH]1")
"> 25 µM (inactive)"
>>> result("Cc1cccc(NC(=S)N=Nc2c(O)[nH]c3ccccc23)c1")
"> 25 µM (inactive)"
>>> result("CSc1nc2ccc(NS(=O)(=O)c3c(Cl)cccc3Cl)cc2s1")
"19.3 µM"
>>> result("COc1cc(OC)cc(C(=O)N2CCC(n3c(C)nc4cc(F)ccc43)CC2)c1")
"> 25 µM (inactive)"
>>> result("Cc1ccc(Cn2ncc3c(N4CCN(c5ccccc5C)CC4)ncnc32)cc1")
"7.78 µM"
>>> result("CC(C)C(=O)N1CCC(CN=Cc2c(O)n(C3CCCCC3)c(=O)n(C3CCCCC3)c2=O)CC1")
"23 µM"

----------
The entries below come with measured IC50 values attached.
# experimentSummary: blockers of mitochondrial fusion, WT vs mutant – cell-based, chemical genetic, wild-type and mutant, confirmation (AID 1361)
# assayContext: Cell-based mitochondrial fusion phenotype, imaging, WT cells
Activity calls are given as the source filed them. The rule behind the calls is not given here.
attributeMeasured: IC50

>>> result("CCOC(=O)C1=C(C)Nc2sc(C(=O)c3ccc(F)cc3)c(N)c2C1c1ccc(C(=O)OC)cc1 (stereo not given)")
"2.57 µM"
>>> result("COCC(C)n1c(SCc2ccc(OC)c(F)c2)nc2ccccc2c1=O (stereo not given)")
"15.3 µM"
>>> result("COCC(C)NC(=O)c1cc(-c2cccc(OC)c2)on1 (stereo not given)")
"> 25 µM (inactive)"
>>> result("CCOC(=O)c1sc(NC(=O)Nc2cccc(Cl)c2)cc1C")
"11.8 µM"
>>> result("O=C(Nc1ccc(F)cc1)c1ccccc1Oc1ccc(C(F)(F)F)cc1[N+](=O)[O-]")
"17.5 µM"
>>> result("Cc1ccccc1NS(=O)(=O)c1cc(C(=O)N2CCc3ccccc3C2)ccc1C")
"> 25 µM (inactive)"
>>> result("Cc1ccc(C2=CC(C)(c3ccc(C)cc3)Nc3nc(C(F)(F)F)nn32)cc1 (stereo not given)")
"7.63 µM"
>>> result("Cc1c(C)c2cc(Cl)c(O)c(CN3CCCC(C)C3)c2oc1=O (stereo not given)")
"> 25 µM (inactive)"
>>> result("Cc1ccc(/C(=N\\O)c2oc3c(C)c4oc(=O)cc(C)c4cc3c2C)cc1")
"7.3 µM"
>>> result("CCSc1nnc(NC(=O)COc2ccc3ccccc3c2)s1")
"> 25 µM (inactive)"

----------
# experimentSummary: blockers of mitochondrial fusion, WT vs mutant – cell-based, chemical genetic, wild-type and mutant, confirmation (AID 1361)
# assayContext: Cell-based mitochondrial fusion phenotype, imaging, WT cells
Calls of active or inactive are those of the source. How the calls were made is not given here.
Classes used: active, inactive

>>> categorylabel("COC(=O)c1ccccc1NC(=O)CNc1cc(Cl)ccc1N1CCOCC1")
"active"
>>> categorylabel("CC[n+]1c(SC)ccc2cc(OC)ccc21")
"active"
>>> categorylabel("CCOC(=O)c1sc2nc(CSc3ccccc3)nc(N3CCC(C(N)=O)CC3)c2c1C")
"inactive"
>>> categorylabel("O=c1c2ccccc2n(Cc2ccc(F)cc2)c(=O)n1C1CCCC1")
"active"
>>> categorylabel("C/C(=N\\Nc1cc(-c2ccccc2)nc(-c2ccccc2)n1)c1ccc(O)c(C)c1")
"active"
>>> categorylabel("CCSc1ccc2cc(OC)ccc2[n+]1CC")
"active"

----------
# experimentSummary: blockers of mitochondrial fusion, WT vs mutant – cell-based, chemical genetic, wild-type and mutant, confirmation (AID 1361)
# assayContext: Cell-based mitochondrial fusion phenotype, imaging, WT cells
The source made the active and inactive calls. How the calls were made is not given here.
Possible outcomes: active, inactive

>>> categorylabel("CC(C)C(c1nnnn1C(C)(C)C)N1CCC(Cc2ccccc2)CC1 (stereo unspecified)")
"active"
>>> categorylabel("CCOc1ccc(NS(=O)(=O)c2cnc(Cl)c(Cl)c2)cc1")
"active"
>>> categorylabel("COc1ccc(-c2nc3ccccc3s2)cc1O")
"inactive"
>>> categorylabel("O=C(Nc1nnc(C2CC2)o1)c1ccc(S(=O)(=O)N2CCCc3ccccc32)cc1")
"active"
>>> categorylabel("COc1cc2[nH]c(=O)n(CCC(=O)N3CCN(c4cccc(C)c4C)CC3)c(=O)c2cc1OC")
"inactive"
>>> categorylabel("CCOC(=O)c1oc2cccc(OCC(O)CNC(C)C)c2c1C (stereo unspecified)")
"inactive"
>>> categorylabel("CSc1nnc(C2CCNCC2)n1C")
"inactive"
>>> categorylabel("COCCCn1c(SCC(=O)NC(C)(C)C)nnc1-c1ccccc1")
"inactive"
>>> categorylabel("COc1ccc(-c2cc3nc(-c4ccccc4)cc(N4CCC(O)CC4)n3n2)cc1")
"inactive"
>>> categorylabel("CCCCc1nc(NCCN)c(C#N)c2c1CSC(C)(C)C2")
"active"
>>> categorylabel("COc1ccc(NS(=O)(=O)c2cc(C(=O)O)ccc2C)cc1")
"inactive"

----------
# experimentSummary: blockers of mitochondrial fusion, WT vs mutant – cell-based, chemical genetic, wild-type and mutant, confirmation (AID 1361)
# assayContext: Cell-based mitochondrial fusion phenotype, imaging, WT cells
The source made the active and inactive calls. The rule behind the calls is not given here.
Outcomes: YES (active), NO (inactive)

>>> categorylabel("O=C(CSc1nnc(CCc2ccccc2)n1-c1ccc(Cl)cc1)c1ccccc1")
"YES"
>>> categorylabel("N#Cc1c(NC(=S)NC(=O)C2CCCC2)sc2c1CCCCC2")
"YES"
>>> categorylabel("Cc1ccccc1S(=O)(=O)c1c(C)cc(C)n(CC(C)C)c1=O")
"NO"
>>> categorylabel("CC(C)=C1C2CCC1C(C(=O)Nc1sc(C)c(-c3ccc(C(C)C)cc3)c1C(N)=O)C2C(=O)O (configuration not stated)")
"YES"
>>> categorylabel("Cc1nc(NC2=NCN(C3CCCCC3C)CN2)nc2ccccc12 (configuration not stated)")
"NO"
>>> categorylabel("O=C(CNC(=S)N(Cc1ccccc1)Cc1ccccc1F)NCCc1ccccc1")
"YES"
>>> categorylabel("CC1CC(C)CN(C2CCN(Cc3cccnc3)CC2)C1 (configuration not stated)")
"NO"
>>> categorylabel("O=C(Nc1ccc(F)cc1)N1CC2CC(C1)c1cccc(=O)n1C2 (configuration not stated)")
"NO"
>>> categorylabel("Cc1ccccc1OCC(=O)Nc1ccccc1N1CCC(C)CC1")
"YES"
>>> categorylabel("C=CCn1c(SCC(=O)Nc2cccc(C(=O)OC)c2)nnc1C(C)NC(=O)c1cccs1 (configuration not stated)")
"NO"
>>> categorylabel("CC(=O)Nc1ccc(S(=O)(=O)N2CCSC2c2ccc(Cl)cc2)cc1 (configuration not stated)")
"NO"
>>> categorylabel("CCC(C(=O)OCC(=O)Nc1ccccc1-c1ccccc1)c1ccccc1 (configuration not stated)")
"YES"
>>> categorylabel("O=C(c1cc(Cl)cc(Cl)c1)N1CCC(=O)N(C(COCc2ccccc2)Cc2ccccc2)CC1 (configuration not stated)")
"NO"
>>> categorylabel("Cc1ccc(C(NC(=O)NC(C)c2ccccc2)C(Cl)(Cl)Cl)cc1F (configuration not stated)")
"YES"
>>> categorylabel("COc1ccccc1/C=C\\C=N\\n1c(-c2ccc(Cl)cc2Cl)n[nH]c1=S")
"YES"
>>> categorylabel("O=C(CCN1C(=O)/C(=C/c2cccs2)SC1=S)NC1=NCCS1")
"YES"
>>> categorylabel("CC(C)(C)c1ccc(S(=O)(=O)Nc2ccc(Cc3ccncc3)cc2)cc1")
"YES"
>>> categorylabel("O=C(O)CCc1ccc(-c2ccc(F)cc2)n1Cc1ccco1")
"NO"
>>> categorylabel("Oc1ccc(/C=N/Nc2nc(N3CCCCCC3)nc(N3CCCCCC3)n2)c(O)c1")
"YES"
>>> categorylabel("CN1CC(=O)Nc2ccc(F)cc2C1=O")
"NO"
>>> categorylabel("COc1ccc(C2c3c(ncn(Cc4ccco4)c3=N)Oc3ccc4ccccc4c32)cc1 (configuration not stated)")
"YES"
>>> categorylabel("COc1ccc(C(=O)NN(C)c2nc(-c3ccccc3)nnc2C(F)(F)F)cc1")
"NO"

----------
# experimentSummary: blockers of mitochondrial fusion, WT vs mutant – cell-based, chemical genetic, wild-type and mutant, confirmation (AID 1361)
# assayContext: Cell-based mitochondrial fusion phenotype, imaging, WT cells
Calls of active or inactive are those of the source. How the calls were made is not given here.
Outcomes: yes (1) for active, no (0) for inactive

>>> categorylabel("O=C(NCC1(c2ccccc2)CCCC1)C1(c2ccccc2)CCCC1")
"yes (1)"
>>> categorylabel("O=C(CNCc1ccccc1Cl)Nc1ccccc1N1CCCCC1")
"yes (1)"
>>> categorylabel("CC(NC(c1ccccc1)c1ccccc1)C(=O)N1CCCc2ccccc21 (stereo not given)")
"no (0)"
>>> categorylabel("COc1ccc(NC(=S)NC(NC(=O)c2ccc(Cl)cc2Cl)C(Cl)(Cl)Cl)c([N+](=O)[O-])c1 (stereo not given)")
"yes (1)"
>>> categorylabel("COC(=O)CN1C(c2cccc(Cl)c2)=Nc2ccc(Cl)cc2C1c1ccccc1 (stereo not given)")
"yes (1)"
>>> categorylabel("CN1C(=S)SC(C)(C)C1(C)NO (stereo not given)")
"no (0)"
>>> categorylabel("CC(C)N1C(=O)/C(=C\\c2nc3ccccc3c(=O)n2-c2ccccc2)c2ccccc21")
"yes (1)"
>>> categorylabel("c1csc(C(c2nnnn2C2CCCCC2)N2CCCC3(CCCCC3)C2)c1 (stereo not given)")
"yes (1)"
>>> categorylabel("Cn1c(=O)c2c(nc(N3CCCCCC3)n2Cc2cccc3ccccc23)n(C)c1=O")
"yes (1)"
>>> categorylabel("CN1CCN(CCCNC(=O)c2ccc(/C=C3/Sc4ccccc4N(Cc4cccc(Cl)c4)C3=O)cc2)CC1")
"yes (1)"

Values were extracted from PubChem BioAssay AID1361.
